assayed target: TMEM87A (GolpHCat) (Homo sapiens, UniProt Q8NBN3)
Sequence (Q8NBN3 whole entry): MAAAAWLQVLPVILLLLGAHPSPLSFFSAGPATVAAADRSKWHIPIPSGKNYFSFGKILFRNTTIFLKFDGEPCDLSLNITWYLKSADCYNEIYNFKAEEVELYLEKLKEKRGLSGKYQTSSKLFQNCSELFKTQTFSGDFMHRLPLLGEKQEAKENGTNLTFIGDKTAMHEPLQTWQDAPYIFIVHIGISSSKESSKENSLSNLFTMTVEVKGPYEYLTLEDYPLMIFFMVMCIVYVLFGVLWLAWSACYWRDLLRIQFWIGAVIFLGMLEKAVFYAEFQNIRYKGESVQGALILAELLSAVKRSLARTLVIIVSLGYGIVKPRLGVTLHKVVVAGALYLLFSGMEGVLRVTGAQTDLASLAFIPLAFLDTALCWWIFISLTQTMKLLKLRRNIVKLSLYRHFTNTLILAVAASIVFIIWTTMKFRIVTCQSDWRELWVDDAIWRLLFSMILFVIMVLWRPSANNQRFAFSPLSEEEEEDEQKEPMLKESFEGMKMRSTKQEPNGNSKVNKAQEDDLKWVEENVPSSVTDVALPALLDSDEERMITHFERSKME
method description: cryo-EM structure at ~[…] Å with […] sodium gluconate; IC50 from whole-cell patch clamp in CHO-K1 cells

[
  {
    "molecule": "O=C(O)[C@H](O)[C@@H](O)[C@H](O)[C@H](O)CO [gluconate]",
    "assayed target": "TMEM87A (GolpHCat) (Homo sapiens, UniProt Q8NBN3)",
    "IC50 [nM]": 100
  }
]
